The reader will find reported pKa values listed item by item below.
test: pKa of the ionizable lipid measured in the LNP (TNS pKa); type: physicochemical; conditions: lipid nanoparticle (LNP) containing the ionizable lipid

Example entries begin here.
>>> observed_result("CCCCC/C=C\\C/C=C\\CCCCCCCCOC(=O)CCN(CCC(=O)OCCCCCCCC/C=C\\C/C=C\\CCCCC)CCN1CCN(C)CC1 (racemic) [DL-C2/C2-PipZ]")
"~7.5"
>>> observed_result("CCCCC/C=C\\C/C=C\\CCCCCCCCC1(CCCCCCCC/C=C\\C/C=C\\CCCCC)OCC(CCN(C)C)O1 (stereo not shown) [KC2]")
"~6.5"
>>> observed_result("CCCCCCCCC(CCCCCCCC)COC(=O)CCN(CCCCN1CCN(C)CC1)CCC(=O)OCC(CCCCCCCC)CCCCCCCC [BOD-C2/C4-PipZ]")
"~6.5"

Now consider a different compound.
Incoming: Please give the measured pKa for this compound: CCCCC/C=C\C/C=C\CCCCCCCCC(CCCCCCCC/C=C\C/C=C\CCCCC)OC(=O)CCCN(C)C [MC3]
Outgoing: ~6.5

Data provenance: patent US12458604B2
